Measured values drawn from patent US20230158025A1 for this set.

measured on: hGALK1m (Homo sapiens, UniProt P51570, E253A/K252A)
Construct: made in house; host or cells: E. coli HMS174
Sequence (P51570 whole entry K252A/E253A): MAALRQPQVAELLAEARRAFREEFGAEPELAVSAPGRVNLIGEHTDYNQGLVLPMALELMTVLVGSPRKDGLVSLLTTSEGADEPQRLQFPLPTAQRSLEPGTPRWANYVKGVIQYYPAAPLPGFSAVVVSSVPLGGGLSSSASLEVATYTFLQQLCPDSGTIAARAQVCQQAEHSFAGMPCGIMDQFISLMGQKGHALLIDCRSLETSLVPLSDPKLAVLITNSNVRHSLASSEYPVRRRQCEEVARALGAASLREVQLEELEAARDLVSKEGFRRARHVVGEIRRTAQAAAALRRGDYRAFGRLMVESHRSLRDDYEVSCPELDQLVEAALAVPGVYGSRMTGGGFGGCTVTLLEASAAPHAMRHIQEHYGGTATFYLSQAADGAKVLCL
experiment summary: in vitro hGALK1 activity assay of the structure-based optimisation (Example 12, Tables 17-20)
Assay type: biochemical
measurement conditions: Tables 18-19; read-out: Max Response (%)
reported metric: Emax (%)

Query :: Field request: Emax | item: COc1cccc2nc(NC3=NC(c4ccccc4Cl)C(C(=O)Nc4cc(C(=O)O)ccn4)=C(C)N3)oc12 (stereo not drawn)
Result :: 80

Query :: Name the recorded Emax for CC1=C(C(=O)Nc2cc(C(=O)O)ccn2)C(c2ccccc2Cl)N=C(Nc2nc3c(Cl)cccc3o2)N1 (stereo not drawn) .
Result :: 85

Query :: # input compound: CC1=C(C(=O)Nc2cc(C(=O)O)ccn2)C(c2ccccc2Cl)N=C(Nc2nc3cccc(F)c3o2)N1 (stereo not drawn) ; wanted: its Emax
Result :: 100

---

experiment summary: PAMPA permeability
measurement conditions: PAMPA
Collected Perm. (1 × 10^−6 cm/sec) values appear next to each entry.

// worked examples, Perm. (1 × 10^−6 cm/sec) included
Query :: For the compound CC1=C(C(=O)Nc2cccc(CN)c2)C(c2ccccc2Cl)N=C(Nc2nc3ccccc3o2)N1 (stereo not drawn) , what Perm. (1 × 10^−6 cm/sec) is on record?
Result :: 32.7 1 × 10^−6 cm/sec

Query :: Query (compound): COC(=O)c1ccc(NC(=O)C2=C(C)NC(Nc3nc4ccccc4o3)=NC2c2ccccc2Cl)cc1 (stereo not drawn) ; field requested: Perm. (1 × 10^−6 cm/sec)
Result :: 25.4 1 × 10^−6 cm/sec

Let's switch to this compound now.
Query :: Could you share which Perm. (1 × 10^−6 cm/sec) value was measured for CC1=C(C(=O)Nc2nncs2)C2(CCOC2)N=C(Nc2nc3ccccc3o2)N1 (stereo not drawn) ?
Result :: 102.7 1 × 10^−6 cm/sec

---

experiment summary: PAMPA permeability
measurement conditions: PAMPA, Perm. (1 × 10^−6 cm/sec)
reported metric: Papp

// below: answered molecules
Query :: Quick one: Papp of CC1=C(C(=O)Nc2cc(C(=O)O)ccn2)C(c2ccc(C)cc2Cl)N=C(Nc2nc3ccc(F)cc3o2)N1 (racemic) ?
Result :: < 1.5 ×10⁻⁶ cm/s

Query :: Would you mind telling me what Papp value was observed for CCn1cc(CNC(=O)C2=C(C)NC(Nc3nc4ccc(F)c(N)c4o3)=NC2c2ccc(C)cc2Cl)cn1 (racemic) ?
Result :: 410 ×10⁻⁶ cm/s

Query :: Quick one: Papp for COc1ccc(C2N=C(Nc3nc4cccc(N)c4o3)NC(C)=C2C(=O)Nc2cc(C(=O)O)ccn2)c(Cl)c1 (racemic) ?
Result :: < 1 ×10⁻⁶ cm/s

Let us examine a further case.
Query :: For CC1=C(C(=O)Nc2cc(C(=O)O)ccn2)C(c2ccccc2Cl)N=C(Nc2nc3ccc(F)cc3o2)N1 (racemic) , what is its reported Papp?
Result :: < 1 ×10⁻⁶ cm/s

---

Sol. by entry:
experiment summary: aqueous kinetic solubility
measurement conditions: aqueous kinetic solubility

These recorded examples may help you get a feel for the data.
Query :: Need Sol. of CC1=C(C(=O)Nc2nncs2)C(c2ccccc2C)N=C(Nc2nc3ccccc3o2)N1 (centres unmarked) [Compound 267] , thanks.
Result :: <1 µg/mL

Query :: Would you kindly share the measured Sol. for CC1=C(S(C)(=O)=O)C(c2ccccc2Cl)N=C(Nc2nc3ccccc3o2)N1 (centres unmarked) [Compound 243] ?
Result :: <1 µg/mL

Query :: Suppose we examine the compound CC1=C(C(=O)N(C)c2ccccc2)C(c2ccccc2Cl)N=C(Nc2nc3ccccc3o2)N1 (centres unmarked) [Compound 151] ; what Sol. value has been reported?
Result :: <1 µg/mL

Query :: Item CC1=C(C(=O)Nc2ccccc2Cl)C(c2ccccc2Cl)N=C(Nc2nc3ccccc3o2)N1 (centres unmarked) [Compound 140] has what recorded Sol.?
Result :: <1 µg/mL

Query :: # get_value(readout='Sol.', item= COc1ccc(Cl)c(C2N=C(Nc3nc4ccccc4o3)NC(C)=C2C(=O)Nc2nncs2)c1 (centres unmarked) [Compound 269] )
Result :: <1 µg/mL

Further cases:
Query :: Quick one: Sol. for CC1=C(C(=O)NCc2cccnc2)C(c2ccccc2Cl)N=C(Nc2nc3ccccc3o2)N1 (centres unmarked) [Compound 221] ?
Result :: <1 µg/mL

Query :: Which value of Sol. has been reported for CC1=C(C(=O)NCc2cnn(C)c2C)C(c2ccc(C)cc2Cl)N=C(Nc2nc3ccc(F)cc3o2)N1 (centres unmarked) [Compound 124] in the records?
Result :: <1 µg/mL

Query :: What measured Sol. goes with CC1=C(C(=O)Nc2nncs2)C2(CCCC2)N=C(Nc2nc3ccccc3o2)N1 [Compound 252] ?
Result :: <1 µg/mL

Query :: Fill in the blank: the reported Sol. of CC1=C(C(=O)Nc2ccc(-c3nnn[nH]3)cc2)C(c2ccccc2Cl)N=C(Nc2nc3ccccc3o2)N1 (centres unmarked) [Compound 192] is ____.
Result :: 33.4 µg/mL

Query :: What value of Sol. has been recorded for this entry: CCn1cc(CNC(=O)C2=C(C)NC(Nc3nc4ccc(F)c(N)c4o3)=N[C@@H]2c2ccc(C)cc2Cl)cn1 [Compound 134]
Result :: <1 µg/mL

Query :: Which value of Sol. has been reported for CC1=C(C(=O)NCc2ccc(Cl)cc2)C(c2ccccc2Cl)N=C(Nc2nc3ccccc3o2)N1 (centres unmarked) [Compound 218] in the records?
Result :: <1 µg/mL

Query :: Endpoint output: Sol. of CC1=C(C(=O)Nc2cc(C(=O)O)ccn2)C(c2ccccc2Cl)N=C(Nc2nc3ccccc3o2)N1 (racemic) [Compound 194] . Value?
Result :: >74 µg/mL

Query :: Fill in the blank: the reported Sol. of CC1=C(C(=O)NCc2cnn(C)c2)C(c2ccc(Cl)cc2Cl)N=C(Nc2nc3cccc(N)c3o2)N1 (centres unmarked) [Compound 123] is ____.
Result :: 15.63 µg/mL

Query :: State the recorded Sol. for this entry: CC1=C(C(=O)NCc2ccc(CO)cc2)C(c2ccccc2Cl)N=C(Nc2nc3ccccc3o2)N1 (centres unmarked) [Compound 228]
Result :: <1 µg/mL

Query :: # query: Sol. of entry CC1=C(C(=O)Nc2cc(C(=O)O)ccn2)[C@H](c2ccccc2Cl)N=C(Nc2nc3ccccc3o2)N1 [Compound 208]
Result :: >74 µg/mL

Query :: For CC1=C(C(=O)Nc2nncs2)C(c2nn(C)cc2Br)N=C(Nc2nc3ccccc3o2)N1 (centres unmarked) [Compound 265] , what is its reported Sol.?
Result :: 6.4 µg/mL

Query :: Sol. lookup needed for CC1=C(C(=O)Nc2nncs2)C(c2c(Br)cnn2C)N=C(Nc2nc3ccccc3o2)N1 (centres unmarked) [Compound 258] , thanks.
Result :: 38.7 µg/mL
